Recorded composite z-score, one value per entry.
System: Sonic hedgehog protein (Shh)
Assay: small-molecule binders of Shh protein, primary screen, biochemical, small-molecule microarray, 635/667 nm fluorescence (AID 1151);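 also: Shh protein binding to compounds spotted on small-molecule microarray slides; score combines spot fluorescence intensity with signal-to-noise across triplicate slides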
Settings: small-molecule microarray binding, 635 nm fluorescence; higher = more signal
Lab note: record just the number, no unit beside it.

Worked examples follow.
COC(=O)c1ccc(OC)c(/C=C\CC(OC(=O)c2ccncc2)c2ccccc2)c1 (stereo not drawn) = 1.14
C=CCN1C(=O)[C@]2(O[C@H](CCO)[C@@H]([Si](C)(C)c3ccc(OC)cc3)[C@@H]2C)c2cc(N3C(=O)c4ccccc4Oc4ccccc43)ccc21 = 0.804
CC1C2C(CCCO)=CC(C3C(=O)N(C)C(=O)C23)N1Cc1cccc(OC(F)(F)F)c1 (stereo not drawn) = 0.113

Ask: Under Sonic hedgehog protein (Shh): composite z-score value of "C=C(COC)C(=O)CC[C@H](OC(C)=O)c1ccc(CO)o1" ?
Reply: 1.55

Ask: Under Sonic hedgehog protein (Shh): composite z-score value of "COc1ccc(C(=O)Nc2ccc(CN3C(=O)[C@]4(O[C@H](CC(=O)N(CCO)Cc5ccccc5)[C@@H]([Si](C)(C)c5ccc(OC)cc5)[C@@H]4C)c4ccccc43)cc2)cc1" ?
Reply: 1.94

Ask: Under Sonic hedgehog protein (Shh): composite z-score value of "O=C1O[C@@H](c2ccccc2)[C@@H](c2ccccc2)N2[C@@H](c3ccc(OCCO)cc3)[C@]3(C(=O)Nc4ccc(C#CC5=CCCCC5)cc43)[C@@H](C(=O)Nc3nc4ccccc4s3)[C@H]12" ?
Reply: 1.43

Ask: Under Sonic hedgehog protein (Shh): composite z-score value of "C=C1C(=O)C=C2CN(C(=O)c3ccccc3)[C@@](Cc3ccc(F)cc3)(C(=O)OC)[C@@H]12" ?
Reply: -0.0536

Ask: Under Sonic hedgehog protein (Shh): composite z-score value of "O=C1N(Cc2ccccc2)Cc2ccccc2C[C@@]12COC(c1ccc(OCCCO)cc1)=N2" ?
Reply: 0.0301

* * *

Assay: adipocyte viability effects, profiling panel, cell-based, 3T3-L1 adipocytes, calcein-AM fluorescence, 48 h, basal (AID 1163); also: test concentration not given here
Conditions: 3T3-L1 adipocytes viability, higher = more signal
Recorded z-score, one value per entry.

Worked examples follow.
C=C(C(=O)CC[C@@H](OC(=O)c1ccccc1-c1ccccc1C(=O)O)c1ccc(CO)o1)C(C)C = 0.231
COC(=O)[C@@]1(Cc2ccc(F)cc2)[C@H]2c3cc(C(=O)N4CCCC4)n(Cc4ccc(OC(F)(F)F)cc4)c3C[C@H]2CN1C(=O)c1ccccc1 = -0.749

Ask: What value of z-score has been recorded for this entry: "COC(=O)[C@@]1(Cc2ccccc2)[C@H]2c3cc(C(=O)N(C)C)n(CCF)c3C[C@H]2CN1C(=O)c1ccccc1"
Reply: -0.386

Ask: What value of z-score has been recorded for this entry: "C=C(/C=C\CNS(=O)(=O)c1ccc(C)cc1)[C@H](O)[C@H]1CCCN1S(=O)(=O)c1ccccc1[N+](=O)[O-]"
Reply: 0.186

Ask: What value of z-score has been recorded for this entry: COC(=O)C1=CC(c2ccc(CO)cc2)=CC(C2CC2)N(Cc2cc3c(cc2Br)OCO3)C=C1C(=O)OC (centres undefined)
Reply: 0.679

Ask: What value of z-score has been recorded for this entry: "COc1ccc([Si](C)(C)[C@H]2[C@H](CC(=O)N(CCO)Cc3ccccc3)O[C@@]3(C(=O)N(Cc4ccc(N5C(=O)c6cccc7cccc5c67)cc4)c4ccccc43)[C@@H]2C)cc1"
Reply: 1.59

* * *

Recorded composite z-score, one value per entry.
Assay: small-molecule microarray binders of probe aWnt5a, primary screen, biochemical, biotinylated probe, 635/667 nm fluorescence (AID 1113);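 also: score merges 667 nm fluorescence intensity with signal-to-noise per printed feature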
Details: higher = more signal
Lab note: record just the number, no unit beside it.

Ask: What value of composite z-score has been recorded for this entry: "CC(C)Cc1ccc(CN2CC[C@@H](NC(=O)c3ccccc3)C2)cc1"
Reply: -0.159

Ask: What value of composite z-score has been recorded for this entry: "CCOC(=O)C[C@H]1[C@H](OC(=O)Cc2ccc3c(c2)OCO3)[C@@H](NC(=O)CC(C)C)c2cc(OCCCO)ccc2N1C(=O)c1ccc2ccccc2n1"
Reply: -0.0405

Ask: What value of composite z-score has been recorded for this entry: "COc1ccc([Si](C)(C)[C@H]2[C@H](CC(=O)N3CCC[C@H]3CO)O[C@@]3(C(=O)N(C)c4c(Br)cc(C)cc43)[C@@H]2C)cc1"
Reply: 1.19

Ask: What value of composite z-score has been recorded for this entry: "COCCOC(=O)N1C(=O)[C@@]2(c3cc(C#CCC(C(=O)OC)C(=O)OC)ccc31)[C@H](c1ccc(O)cc1)N1[C@H](c3ccccc3)[C@H](c3ccccc3)OC(=O)[C@H]1[C@@H]2C(=O)N1CCc2cc(OC)c(OC)cc2C1"
Reply: 0.0215

Ask: What value of composite z-score has been recorded for this entry: "CCCNC(=O)[C@@]1(Sc2ccc(C)cc2)CC(=O)N(Cc2cc(C(F)(F)F)cc(C(F)(F)F)c2)[C@@H]1c1ccc(CO)cc1"
Reply: -0.0944

Ask: What value of composite z-score has been recorded for this entry: "O=C1c2ccccc2[C@](Cc2ccccc2I)(C(=O)NCCN2CCOCC2)[C@H](c2ccc(CO)cc2)N1Cc1ccccc1C(F)(F)F"
Reply: -0.0721

* * *

Test system: Human papillomavirus type 1a protein E7 (residues 44-93)
Test: HPV1a E7 fragment binders on microarrays, primary screen, biochemical, small-molecule microarray, residues 44-93, 635 nm fluorescence (AID 1108);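 also: E7 fragment applied at 1 µg/mL in TBST for 1 h at 4 C; score combines spot fluorescence with its signal to noise ratio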
Settings: small-molecule microarray binding, fluorescence 635 nm; higher = more signal
readout.name: composite z-score

C=C[C@@H](CO)NS(=O)(=O)c1ccc(Br)cc1 = -1.71
COc1ccc(-c2cc3c(c(CCc4ccccc4)n2)[Si](C(C)C)(C(C)C)O[C@H]3c2ccccc2)cn1 = -0.38
CC(C)(C)OC(=O)CC[C@]1(C(=O)N2CCOCC2)COC(c2ccc(OCCCO)cc2)=N1 = 1.3
C=CCC(OC(C)=O)[C@@H]1[C@@H](N(Cc2ccc(-c3ccccc3)cc2)C(=O)Cc2ccc(OC)cc2)c2cc(OCCCO)ccc2N1C(=O)Cc1ccc(OC)cc1 (stereo partly drawn) = -0.37
COC(=O)C1(CC(C)C)C=C2C(=C(C)C(=O)C2C)CN1 (stereo not drawn) = -0.412
COc1c(C)cc(-c2nc(-c3ccccc3)c3c(c2C)CO[Si]3(C(C)C)C(C)C)cc1C = 0.0725
C=CC[C@H](OC(=O)Nc1ccc(SC)cc1)c1ccc(O)c(F)c1 = -0.419

Ask: What value of composite z-score has been recorded for this entry: "COCCOC(=O)N1C(=O)[C@@]2(c3cc(C#CCNC(N)=O)ccc31)[C@H](C(=O)Nc1nc3ccccc3s1)[C@H]1C(=O)O[C@H](c3ccccc3)[C@H](c3ccccc3)N1[C@@H]2c1ccc(O)cc1"
Reply: 1.2

* * *

Tested on: Sonic hedgehog protein (Shh)
Assay: small-molecule binders of Shh protein, primary screen, biochemical, small-molecule microarray, 635/667 nm fluorescence (AID 1151);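 also: Shh protein binding to compounds spotted on small-molecule microarray slides; score combines spot fluorescence intensity with signal-to-noise across triplicate slides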
Details: small-molecule microarray binding, 635 nm fluorescence; higher = more signal
readout.name: composite z-score
Lab note: record just the number, no unit beside it.

Worked examples follow.
O=C(NCC(F)(F)F)[C@@H]1c2ccccc2C(=O)N(Cc2cc(C(F)(F)F)cc(C(F)(F)F)c2)[C@H]1c1ccc(CO)cc1 = 0.363
CCOC(=O)C1=CCC(c2cccn2C(=O)OC(C)(C)C)N(S(=O)(=O)c2ccc(C)cc2)C1 (centres undefined) = 0.157
CCOC(=O)C1=CC[C@@H](c2ccccc2)N(S(=O)(=O)c2ccc(C)cc2)[C@@H]1C#N = -0.0766
COc1ccc([Si](C)(C)[C@H]2[C@H](CC(=O)N3CCC[C@H]3CO)O[C@@]3(C(=O)N(C)c4ccccc43)[C@@H]2C)cc1 = 1.54
COC(=O)[C@@]1(Cc2ccc(OC)cc2)[C@H]2c3cc(C(=O)N(C)C)n(Cc4c(CO)[nH]cc(C)c4=O)c3C[C@H]2CN1C(=O)c1ccccc1 = -0.532

Ask: What value of composite z-score has been recorded for this entry: CC(C)c1ccc(NN2C(C(O)c3ccccc3)C=CC3C(=O)N(c4ccccc4)C(=O)C32)cc1 (centres undefined)
Reply: -0.983

Ask: What value of composite z-score has been recorded for this entry: "C[N+](C)(C)CCCC[C@@H]1NC(=O)[C@H]2C[C@@H](C(=O)O)[C@@H](c3ccc(O)cc3)N2C1=O"
Reply: 1.22

Ask: What value of composite z-score has been recorded for this entry: "COCCOC(=O)N1C(=O)[C@@]2(c3cc(C#CCCO)ccc31)[C@H](C(=O)N1CCN(c3ncccn3)CC1)[C@H]1C(=O)O[C@H](c3ccccc3)[C@H](c3ccccc3)N1[C@@H]2c1ccc(OCCO)cc1"
Reply: 1.99

Ask: What value of composite z-score has been recorded for this entry: "C=CCOC(=O)[C@H]1[C@@H]2C(=O)O[C@@H](c3ccccc3)[C@@H](c3ccccc3)N2[C@@H](c2ccc(OCCOC(=O)[C@H]3C[C@H]4C(=O)NCC(=O)N4[C@H]3c3cccc(OCCO)c3)cc2)[C@]12C(=O)Nc1ccc(I)cc12"
Reply: 1.94

Ask: What value of composite z-score has been recorded for this entry: CCOC(=O)C1=CCC(c2ccncc2)N(S(=O)(=O)c2ccc(C)cc2)C1 (centres undefined)
Reply: 0.245

Ask: What value of composite z-score has been recorded for this entry: CC(C)c1ccc(NN2C(C(O)C3=C[C@H]4C[C@@H](C3)C4(C)C)C=CC3C(=O)N(c4ccccc4)C(=O)C32)cc1 (some centres undefined)
Reply: -0.0766

Ask: What value of composite z-score has been recorded for this entry: "C=C(CC1([C@@H](NP(=O)(c2ccccc2)c2ccccc2)[C@H]2C[C@@H]2CCCC)CC1)c1cccc(OC)c1"
Reply: -0.836

Ask: What value of composite z-score has been recorded for this entry: CCCCCN1CC=CC23O[C@@H]4/C=C\CCCOC(=O)C4[C@H]2C(=O)N(CCCCCO)[C@@H]3C1=O (some centres undefined)
Reply: -0.0251

Ask: What value of composite z-score has been recorded for this entry: "COc1cccc(C)c1NC(=O)O[C@H]1[C@H](OC(=O)Nc2ccc3c(c2)OCO3)[C@H](OC(=O)Nc2ccc3c(c2)OCO3)[C@@H](OC)O[C@@H]1CO"
Reply: 2.02
